T/C %: recorded values
Biological target: human PGI2 receptors (hIP) (Homo sapiens)
Construct: expressed in transfected cells; host or cells: CHO-K1
Sequence (P43119 whole entry): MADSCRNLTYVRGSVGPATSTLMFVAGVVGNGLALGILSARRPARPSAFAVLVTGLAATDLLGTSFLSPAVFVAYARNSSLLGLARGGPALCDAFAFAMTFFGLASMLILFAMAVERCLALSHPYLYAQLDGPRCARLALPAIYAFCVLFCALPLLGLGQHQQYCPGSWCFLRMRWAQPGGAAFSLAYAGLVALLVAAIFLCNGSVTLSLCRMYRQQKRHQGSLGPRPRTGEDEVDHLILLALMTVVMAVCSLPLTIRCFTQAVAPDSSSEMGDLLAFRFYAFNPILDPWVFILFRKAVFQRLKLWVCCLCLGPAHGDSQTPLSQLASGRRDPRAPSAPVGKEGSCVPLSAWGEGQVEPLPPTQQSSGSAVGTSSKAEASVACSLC
Test: Method A: positive allosteric modulator activity, cAMP in CHO/hIP cells with 100 pM iloprost
Format: cell-based
Details: cAMP relative to 100 pM iloprost alone, test compound 10 uM
Description: The positive allosteric modulator activity of a test compound was measured as a change in the amount of intracellular cyclic AMP (cAMP) in the presence of 100 pM of the IP agonist iloprost (manufactured by CAYMAN CHEMICAL), using CHO-K1 cells (CHO/hIP cells) in which human PGI2 receptors (hIP) are stably expressed. […]

molecule: COc1ccc(C(c2nnnn2C(C)(C)C)N2CCc3ccccc3C2)cc1OC (centres unmarked)
T/C %: 103%
//
molecule: COc1ccc(C(c2nnnn2C2CCCCC2)N2CCc3ccccc3C2)cc1OC (centres unmarked)
T/C %: 87%
//
molecule: Cc1ccc(C(c2nnnn2C2CCCC2)N2CCc3ccccc3C2)cc1 (centres unmarked)
T/C %: 105%
//
molecule: COCCn1nnnc1C(c1ccc(O)cc1OC)N1CCc2ccccc2C1 (centres unmarked)
T/C %: 97%
//
molecule: CCC(C)(C)n1nnnc1C(c1ccc(F)cc1)N1CCc2ccccc2C1 (centres unmarked)
T/C %: 155%
//
molecule: Fc1ccc(C(c2nnnn2C2CCCC2)N2CCc3ccccc3C2)cc1 (centres unmarked)
T/C %: 108%
//
molecule: Fc1ccc(C(c2nnnn2CCc2ccccc2)N2CCc3ccccc3C2)cc1 (centres unmarked)
T/C %: 103%
//
molecule: c1ccc(Cn2nnnc2C(c2ccccc2)N2CCc3ccccc3C2)cc1 (centres unmarked)
T/C %: 112%

* * *

target: human PGI2 receptors (hIP) (Homo sapiens); construct: expressed in transfected cells; host or cells: CHO-K1; assay: Method A: positive allosteric modulator activity, cAMP in CHO/hIP cells with 100 pM iloprost; assay type: cell-based; settings: cAMP relative to 100 pM iloprost alone, test compound 10 uM
T/C %: recorded values

compound: Cc1ccc(S(=O)(=O)Cn2nnnc2C(c2ccc(F)cc2)N2CCc3ccccc3C2)cc1 (centres unmarked)
T/C %: 93%

compound: Clc1ccc(C(c2nnnn2C2CCCC2)N2CCc3ccccc3C2)cc1 (centres unmarked)
T/C %: 110%

compound: Cc1ccc(Cn2nnnc2C(c2ccccc2)N2CCc3ccccc3C2)cc1 (centres unmarked)
T/C %: 117%

compound: COc1ccc(OC)c(C(c2nnnn2Cc2ccc(C)cc2)N2CCc3ccccc3C2)c1 (centres unmarked)
T/C %: 91%

compound: Cc1ccc(C(c2nnnn2Cc2ccccc2)N2CCc3ccccc3C2)cc1 (centres unmarked) [drawing 140]
T/C %: 102%

compound: COc1ccc(OC)c(C(c2nnnn2C2CCCCC2)N2CCc3ccccc3C2)c1 (centres unmarked)
T/C %: 82%

compound: Oc1ccc(C(c2nnnn2C2CCCCC2)N2CCc3ccccc3C2)cc1 (centres unmarked)
T/C %: 104%

compound: COc1ccc(OC)c(C(c2nnnn2CCc2ccccc2)N2CCc3ccccc3C2)c1 (centres unmarked)
T/C %: 78%

compound: COc1ccc(OC)c(C(c2nnnn2Cc2ccccc2)N2CCc3ccccc3C2)c1 (centres unmarked)
T/C %: 90%

compound: COc1ccc(C(c2nnnn2Cc2ccccc2)N2CCc3ccccc3C2)cc1 (centres unmarked)
T/C %: 110%

compound: Cc1ccc(C(c2nnnn2Cc2ccc(F)cc2)N2CCc3ccccc3C2)cc1 (centres unmarked)
T/C %: 117%

compound: COc1ccc(C(c2nnnn2Cc2ccc(F)cc2)N2CCc3ccccc3C2)cc1OC (centres unmarked)
T/C %: 96%

compound: Oc1ccc(C(c2nnnn2C2CCCC2)N2CCc3ccccc3C2)cc1 (centres unmarked)
T/C %: 105%

compound: Fc1ccc(C(c2nnnn2C2CCCCC2)N2CCc3ccccc3C2)cc1 (centres unmarked)
T/C %: 104%
